Each entry below carries its recorded IC50.
- TARGET_UNDER_TEST: recombinant human Syk (GST-hSyk fusion protein) (Homo sapiens)
- Construct: purchased Carna Biosciences 08-176
- TEST_NAME: Homogeneous Time-Resolved Fluorescence (HTRF) assay for the recombinant human Syk enzyme
- Format: biochemical
- MEASUREMENT_CONDITIONS: IC50 class; 10-dose titration, 25 μM ATP; read-out: rhSYK Activity
MEASURE: IC50

1. Cc1cc(Nc2nccc(C(F)(F)F)n2)cc(-c2cnn(CC(O)C(=O)O)c2)c1 (racemic) [Example 5.14]
≤ 0.1 µM
2. Cc1cc(Nc2nccc(C(F)F)n2)cc(-c2cnn(CC3OC(=O)NC3C3CC3)c2)c1 (single isomer, unassigned) [Example 23.18]
≤ 0.1 µM
3. Cc1cc(Nc2ncccn2)cc(-c2cnn(C(C)c3ccc(C(N)=O)cc3)c2)c1 (single isomer, unassigned) [Example 28.1]
≤ 0.1 µM
4. Cc1cc(Nc2nccc(C(F)(F)F)n2)cc(-c2cnn(C(C)C(C)(O)CO)c2)c1 (single isomer, unassigned) [Example 21.9]
≤ 0.1 µM
5. Cc1cc(Nc2nccc(C(F)F)n2)cc(-c2cnn(CC3OC(=O)NC3CO)c2)c1 (single isomer, unassigned) [Example 33.1]
≤ 0.1 µM
6. Cc1cc(Nc2nccc(C(F)F)n2)cc(-c2cnn(C(C)C(C)(O)CO)c2)c1 (stereo not drawn) [Example 22.3]
≤ 0.1 µM
7. Cc1cc(Nc2nccc(C(F)(F)F)n2)cc(-c2cnn(CC3NC(=O)OC3C)c2)c1 (stereo not drawn) [Example 3.129]
≤ 0.1 µM
8. Cc1cc(Nc2nccc(C(F)(F)F)n2)cc(-c2cnn(C3CCC(C(=O)O)c4ccccc43)c2)c1 (stereo not drawn) [Example 3.51]
≤ 0.1 µM
9. Cc1cc(Nc2nccc(C(C)(C)C)n2)cc(-c2cnn(C[C@H](O)C(N)=O)c2)c1 [Example 6.7]
≤ 0.1 µM
10. Cc1cc(Nc2cc(C(F)(F)F)ccn2)nc(-c2cnn(C3CCC(C(N)=O)c4ccccc43)c2)c1 (stereo not drawn) [Example 6.14]
≤ 0.1 µM
11. O=C1NCC(Cn2cc(-c3cccc(Nc4nccc(C(F)(F)F)n4)c3)cn2)O1 (stereo not drawn) [Example 2.27]
≤ 0.1 µM
12. Cc1cc(Nc2ncccn2)cc(-c2cnn(C3CC(C(N)=O)C3)c2)c1 (single isomer, unassigned) [Example 31.1]
≤ 0.1 µM
13. Cc1cc(Nc2nccc(C)n2)cc(-c2cnn(CC3OC(=O)NC3(C)C)c2)c1 (stereo not drawn) [Example 3.105]
≤ 0.1 µM
14. Cc1cc(Nc2nccc(C(F)F)n2)cc(-c2cnn(CC3(C)CNC(=O)C3)c2)c1 (stereo not drawn) [Example 2.77]
≤ 0.1 µM
15. Cc1cc(Nc2nccc(C(F)F)n2)cc(-c2cnn(C(C[C@@H](C)O)[C@H](C)O)c2)c1 (stereo in doubt) [Example 2.54]
≤ 0.1 µM

---

- TARGET_UNDER_TEST: recombinant human Syk (GST-hSyk fusion protein) (Homo sapiens)
- Construct: purchased Carna Biosciences 08-176
- TEST_NAME: Homogeneous Time-Resolved Fluorescence (HTRF) assay for the recombinant human Syk enzyme
- Format: biochemical
- MEASUREMENT_CONDITIONS: 10-dose titration, 25 μM ATP; read-out: rhSYK IC50
pIC50: −log10 of the molar value.
MEASURE: pIC50

1. Cc1cc(Nc2nccc(C(F)F)n2)cc(-c2cnn(CC(O)(CO)C(F)(F)F)c2)c1 (single isomer, unassigned) [Example 32.1]
8.80
2. Cc1cc(Nc2ncc(F)c(C(F)F)n2)cc(-c2cnn([C@@H]3CCC[C@@H](O)[C@H]3O)c2)c1 (single isomer, unassigned) [Example 10.11]
8.46
3. Cc1cc(Nc2nccc(C(F)F)n2)cc(-c2cnn(CCNC(=O)C3CC3)c2)c1 [Example 26.1]
7.60
4. Cc1cc(Nc2nccc(C(F)F)n2)cc(-c2cnn(CC(C)(O)C(F)(F)F)c2)c1 (single isomer, unassigned) [Example 24.2]
8.21
5. Cc1cc(Nc2nccc(C(F)F)n2)cc(-c2cnn(C[C@H](O)C(N)=O)c2)c1 [Example 16]
8.57
6. Cc1cc(Nc2nccc(C(F)F)n2)cc(-c2cnn(C3CCCC(O)C3O)c2)c1 (single isomer, unassigned) [Example 10.4]
8.43
7. Cc1cc(Nc2cc(C(F)(F)F)ccn2)nc(-c2cnn(CC(C)(O)CC#N)c2)c1 (single isomer, unassigned) [Example 20.1]
8.77

---

- TARGET_UNDER_TEST: recombinant human Syk (GST-hSyk fusion protein) (Homo sapiens, UniProt P43405)
- Construct: purchased Carna Biosciences 08-176
- TEST_NAME: Homogeneous Time-Resolved Fluorescence (HTRF) assay for the recombinant human Syk enzyme
- Type: biochemical
- MEASUREMENT_CONDITIONS: 10-dose titration, 25 μM ATP; read-out: rhSYK IC50
Rule: IC50 below 6 nM gives YES, anything at or above gives NO.

1. COc1ccnc(Nc2cc(C)cc(-c3cnn(CCC(=O)O)c3)c2)n1
NO
2. Cc1cc(Nc2nccc(C(F)(F)F)n2)cc(-c2cnn(CC(O)c3ccccc3)c2)c1 (racemic)
NO
3. Cc1cc(Nc2nccc(C(F)(F)F)n2)cc(-c2cnn(C3CCNC(=O)CC3)c2)c1 (single isomer, unassigned) [14.1 (enantiomer 2)]
NO
4. Cc1cc(Nc2nccc(C(F)F)n2)cc(-c2cnn(CC(O)(CO)C(F)(F)F)c2)c1 (single isomer, unassigned) [Example 25.1]
YES
5. Cc1cc(Nc2nccc(C(F)(F)F)n2)cc(-c2cnn(CC3(O)CCN(C(N)=O)CC3)c2)c1
NO
6. Cc1cc(Nc2nccc(C(F)F)n2)cc(-c2cnn(C3CCC(O)C3(C)O)c2)c1 (stereo not shown) [Example 22.14]
YES
7. Cc1cc(Nc2nccc(C(F)F)n2)cc(-c2cnn(CC3(O)CCC3)c2)c1
YES
8. Cc1cc(Nc2nccc(C(F)(F)F)n2)cc(-c2cnn(CC3CN(C)C(=O)O3)c2)c1 (single isomer, unassigned)
NO
9. Cc1cc(Nc2nccc(C(F)(F)F)n2)cc(-c2cnn(C[C@@H]3OC(=O)N[C@H]3C)c2)c1 (single isomer, unassigned)
YES
10. Cc1cc(Nc2nccc(C(F)F)n2)cc(-c2cnn(C3CCCC(O)C3O)c2)c1 (single isomer, unassigned) [Example 10.5]
YES
11. COC(=O)[C@@H](N)Cn1cc(-c2cc(C)cc(Nc3nccc(C(F)(F)F)n3)c2)cn1
NO
12. Cc1cc(Nc2nccc(C(F)F)n2)cc(-c2cnn(C3CCCC(O)C3O)c2)c1 (single isomer, unassigned) [Example 10.6]
YES
13. Cc1cc(Nc2nccc(C(F)(F)F)n2)cc(-c2cnn(C3CCNC(=O)CC3)c2)c1 (single isomer, unassigned) [14.1 (enantiomer 1)]
NO
14. Cc1cc(Nc2nccc(C(F)F)n2)cc(-c2cnn(CC(C)(O)C(F)(F)F)c2)c1 (single isomer, unassigned) [Example 24.1]
YES
15. Cc1cc(Nc2ncccn2)cc(-c2cnn(C3CC(C(N)=O)C3)c2)c1 (single isomer, unassigned) [Example 31.1]
NO
16. Cc1cc(Nc2nccc(C(F)F)n2)cc(-c2cnn(C3CC(C)(C)CC(C)(O)C3O)c2)c1 (stereo not shown) [Example 22.10]
NO
17. Cc1cc(Nc2ncccn2)cc(-c2cnn(C3CC(C(N)=O)C3)c2)c1 (single isomer, unassigned) [Example 30.1]
NO
18. Cc1cc(Nc2nccc(C(F)F)n2)cc(-c2cnn(C(C)C(C)(O)CO)c2)c1 (single isomer, unassigned)
YES
19. Cc1cc(Nc2nccc(C(F)F)n2)cc(-c2cnn(C3CCC(O)C3(C)O)c2)c1 (stereo not shown) [Example 22.13]
YES
20. Cc1cc(Nc2nccc(C(F)(F)F)n2)cc(-c2cnn(C3CCCC(O)C3O)c2)c1 (single isomer, unassigned)
NO
21. Cc1cc(Nc2nccc(C(F)F)n2)cc(-c2cnn(C3CC(C)(C)CC(C)(O)C3O)c2)c1 (stereo not shown) [Example 22.9]
YES
22. Cc1cc(Nc2nccc(C)n2)cc(-c2cnn(C3CCCC(O)C3O)c2)c1 (stereo not shown) [Example 10.10]
NO
23. Cc1cc(Nc2nccc(C(F)F)n2)cc(-c2cnn(CCNS(C)(=O)=O)c2)c1
NO
24. Cc1cc(Nc2nccc(C(F)F)n2)cc(-c2cnn(C3CCCC(C)(O)C3O)c2)c1 (stereo not shown)
YES
25. Cc1cc(Nc2nccc(C(F)F)n2)cc(-c2cnn(C3CCCC(O)C3O)c2)c1 (single isomer, unassigned) [Example 10.7]
YES
26. Cc1cc(Nc2nccc(C(F)(F)F)n2)cc(-c2cnn(CC(O)C(N)=O)c2)c1 (single isomer, unassigned)
YES
27. Cc1cc(Nc2nccc(C(F)(F)F)n2)cc(-c2cnn(CC(C)(O)CO)c2)c1 (single isomer, unassigned)
YES

---

- TARGET_UNDER_TEST: recombinant human Syk (GST-hSyk fusion protein) (Homo sapiens)
- Construct: purchased Carna Biosciences 08-176
- TEST_NAME: Homogeneous Time-Resolved Fluorescence (HTRF) assay for the recombinant human Syk enzyme
- Assay type: biochemical
- MEASUREMENT_CONDITIONS: 10-dose titration, 25 μM ATP; read-out: rhSYK IC50
pIC50: −log10 of the molar value.
Each entry below carries its recorded pIC50.
MEASURE: pIC50

1) Cc1cc(Nc2ncccn2)cc(-c2cnn(C(C)c3ccc(C(N)=O)cc3)c2)c1 (single isomer, unassigned) [Example 28.2]
8.14
2) Cc1cc(Nc2nccc(C)n2)cc(-c2cnn(C3CCCC(O)C3O)c2)c1 (stereo not shown) [Example 10.9]
8.32
3) Cc1cc(Nc2nccc(C(F)(F)F)n2)cc(-c2cnn(CC3(O)CCNCC3)c2)c1
6.96
4) Cc1cc(Nc2nccc(C(F)F)n2)cc(-c2cnn(CC(O)(CO)C(F)(F)F)c2)c1 (single isomer, unassigned) [Example 32.2]
8.48
